- System: Pseudomonas aeruginosa
- TEST: MIC by broth microdilution
- Type: cell-based
- CONDITION_DESCRIPTION: P. aeruginosa M7723, resistance gene kpc
- Experimental: The 5 designed and synthesized peptides of the invention, plus omiganan (peptide of the state of the art) were evaluated for their antimicrobial capacity in microdilution assays for determining the minimum inhibitory concentration (MIC). A first panel of 8 representative strains was analyzed in these assays, encompassing Gram positive and Gram negative bacteria. […] The lowest MIC values indicate a higher antimicrobial potency. […]
Ends that are not written are not given here.
ASSAY_METRIC: MIC

{"columns": ["SUBSTANCE", "RESULT"],
 "data": [
  ["RIVQRIKKWLLKWKKLGY-NH2 [peptide 5, RIVQRIKKWLLKWKKLGY]", "32 µg/mL"],
  ["WPKWWKWKRRWGRKKAKKRRG-NH2 [peptide 1]", "64 µg/mL"],
  ["GLLKKWLKKWKEFKRIVGY-NH2 [peptide 2, GLLKKWLKKWKEFKRIVGY]", "64 µg/mL"],
  ["ILRWPWWPWRRK-NH2 [Omiganan, ILRWPWWPWRRK, reference compound]", "256 µg/mL"]
]}

====

- Tested on: Staphylococcus aureus
- TEST: MIC by broth microdilution
- Assay type: cell-based
- CONDITION_DESCRIPTION: S. aureus M4046, resistance gene mecA
Ends that are not written are not given here.

{"columns": ["SUBSTANCE", "TARGET_OR_TEST_SYSTEM", "MIC [µg/mL]"],
 "data": [
  ["ILRWPWWPWRRK-NH2 [Omiganan, ILRWPWWPWRRK, reference compound]", "Staphylococcus aureus", 32],
  ["WPKWWKWKRRWGRKKAKKRRG-NH2 [peptide 1]", "Staphylococcus aureus", 32],
  ["GLLKKWLKKWKEFKRIVGY-NH2 [peptide 2, GLLKKWLKKWKEFKRIVGY]", "Staphylococcus aureus", 128],
  ["RIVQRIKKWLLKWKKLGY-NH2 [peptide 5, RIVQRIKKWLLKWKKLGY]", "Staphylococcus aureus", 32]
]}

====

- Test system: Staphylococcus aureus
- TEST: MIC by broth microdilution
- Type: cell-based
- CONDITION_DESCRIPTION: S. aureus M2832, resistance gene mecA
- Procedure: The 5 designed and synthesized peptides of the invention, plus omiganan (peptide of the state of the art) were evaluated for their antimicrobial capacity in microdilution assays for determining the minimum inhibitory concentration (MIC). A first panel of 8 representative strains was analyzed in these assays, encompassing Gram positive and Gram negative bacteria. […] The lowest MIC values indicate a higher antimicrobial potency. […]
Ends that are not written are not given here.

{"columns": ["SUBSTANCE", "MIC / µg/mL"],
 "data": [
  ["ILRWPWWPWRRK-NH2 [Omiganan, ILRWPWWPWRRK, reference compound]", 64],
  ["GLLKKWLKKWKEFKRIVGY-NH2 [peptide 2, GLLKKWLKKWKEFKRIVGY]", 128],
  ["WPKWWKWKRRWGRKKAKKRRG-NH2 [peptide 1]", 32],
  ["RIVQRIKKWLLKWKKLGY-NH2 [peptide 5, RIVQRIKKWLLKWKKLGY]", 64]
]}

====

# MIC listing for each entry below
- System: Staphylococcus aureus
- TEST: MIC by broth microdilution
- Type: cell-based
- CONDITION_DESCRIPTION: S. aureus 239, resistance gene ermC
Ends that are not written are not given here.

{"columns": ["SUBSTANCE", "MIC"],
 "data": [
  ["ILRWPWWPWRRK-NH2 [Omiganan, ILRWPWWPWRRK, reference compound]", "32 µg/mL"],
  ["GLLKKWLKKWKEFKRIVGY-NH2 [peptide 2, GLLKKWLKKWKEFKRIVGY]", "64 µg/mL"],
  ["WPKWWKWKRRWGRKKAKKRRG-NH2 [peptide 1]", "32 µg/mL"],
  ["RIVQRIKKWLLKWKKLGY-NH2 [peptide 5, RIVQRIKKWLLKWKKLGY]", "64 µg/mL"]
]}

====

- Tested on: A. baumanii
- CONDITION_DESCRIPTION: A. baumanii M5179, resistance gene oxa-51
Ends that are not written are not given here.

{"columns": ["SUBSTANCE", "MIC (µg/mL)"],
 "data": [
  ["GLLKKWLKKWKEFKRIVGY-NH2 [peptide 2, GLLKKWLKKWKEFKRIVGY]", 32],
  ["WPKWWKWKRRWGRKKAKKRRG-NH2 [peptide 1]", 64],
  ["ILRWPWWPWRRK-NH2 [Omiganan, ILRWPWWPWRRK, reference compound]", 64],
  ["RIVQRIKKWLLKWKKLGY-NH2 [peptide 5, RIVQRIKKWLLKWKKLGY]", 32]
]}

====

# MIC listing for each entry below
- Tested on: Escherichia coli
- CONDITION_DESCRIPTION: E. coli NEU23, resistance gene oxa-GIII + tem
- Protocol: The 5 designed and synthesized peptides of the invention, plus omiganan (peptide of the state of the art) were evaluated for their antimicrobial capacity in microdilution assays for determining the minimum inhibitory concentration (MIC). A first panel of 8 representative strains was analyzed in these assays, encompassing Gram positive and Gram negative bacteria. […] The lowest MIC values indicate a higher antimicrobial potency. […]
Ends that are not written are not given here.

{"columns": ["SUBSTANCE", "MIC / µg/mL"],
 "data": [
  ["RIVQRIKKWLLKWKKLGY-NH2 [peptide 5, RIVQRIKKWLLKWKKLGY]", 32],
  ["ILRWPWWPWRRK-NH2 [Omiganan, ILRWPWWPWRRK, reference compound]", 32],
  ["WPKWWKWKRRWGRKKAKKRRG-NH2 [peptide 1]", 128],
  ["GLLKKWLKKWKEFKRIVGY-NH2 [peptide 2, GLLKKWLKKWKEFKRIVGY]", 32]
]}

====

- Tested on: A. baumanii
- CONDITION_DESCRIPTION: A. baumanii FAV-1, resistance gene per + oxa-51 + oxa-58
Ends that are not written are not given here.
# MIC listing for each entry below
ASSAY_METRIC: MIC (µg/mL)

{"columns": ["SUBSTANCE", "UNIT_OF_MEASUREMENT", "MEASURED_NUMBER"],
 "data": [
  ["RIVQRIKKWLLKWKKLGY-NH2 [peptide 5, RIVQRIKKWLLKWKKLGY]", "µg/mL", 16],
  ["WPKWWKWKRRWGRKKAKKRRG-NH2 [peptide 1]", "µg/mL", 64],
  ["ILRWPWWPWRRK-NH2 [Omiganan, ILRWPWWPWRRK, reference compound]", "µg/mL", 64],
  ["GLLKKWLKKWKEFKRIVGY-NH2 [peptide 2, GLLKKWLKKWKEFKRIVGY]", "µg/mL", 16]
]}

====

- Tested on: A. baumanii
- CONDITION_DESCRIPTION: A. baumanii M7489, resistance gene oxa-51 + tem
- Method: Subsequently, an analysis of a panel of clinical isolates including strains with different resistance mechanisms against conventional antibiotics was carried out, all of which are of clinical relevance. […] In these tables the detected gene/s responsible for the resistance against antibiotics for each strain, are included. Antimicrobial activity was analyzed by means of the determination of the MIC (minimum inhibitory concentration) by the microdilution technique. […]
Ends that are not written are not given here.

{"columns": ["SUBSTANCE", "UNIT_OF_MEASUREMENT", "MIC"],
 "data": [
  ["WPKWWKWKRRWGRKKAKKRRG-NH2 [peptide 1]", "µg/mL", 64],
  ["ILRWPWWPWRRK-NH2 [Omiganan, ILRWPWWPWRRK, reference compound]", "µg/mL", 32],
  ["RIVQRIKKWLLKWKKLGY-NH2 [peptide 5, RIVQRIKKWLLKWKKLGY]", "µg/mL", 16],
  ["GLLKKWLKKWKEFKRIVGY-NH2 [peptide 2, GLLKKWLKKWKEFKRIVGY]", "µg/mL", 8]
]}

====

- Test system: Staphylococcus aureus
- TEST: MIC by broth microdilution
- Format: cell-based
- CONDITION_DESCRIPTION: S. aureus 204, resistance gene ermA
Ends that are not written are not given here.

{"columns": ["SUBSTANCE", "MIC, µg/mL"],
 "data": [
  ["GLLKKWLKKWKEFKRIVGY-NH2 [peptide 2, GLLKKWLKKWKEFKRIVGY]", 64],
  ["ILRWPWWPWRRK-NH2 [Omiganan, ILRWPWWPWRRK, reference compound]", 64],
  ["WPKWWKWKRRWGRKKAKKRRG-NH2 [peptide 1]", 64],
  ["RIVQRIKKWLLKWKKLGY-NH2 [peptide 5, RIVQRIKKWLLKWKKLGY]", 32]
]}

====

# MIC listing for each entry below
- Tested on: A. baumanii
- CONDITION_DESCRIPTION: A. baumanii M13523, resistance gene oxa-51
Ends that are not written are not given here.
ASSAY_METRIC: MIC (µg/mL)

{"columns": ["SUBSTANCE", "MEASURED_NUMBER"],
 "data": [
  ["RIVQRIKKWLLKWKKLGY-NH2 [peptide 5, RIVQRIKKWLLKWKKLGY]", 4],
  ["GLLKKWLKKWKEFKRIVGY-NH2 [peptide 2, GLLKKWLKKWKEFKRIVGY]", 32],
  ["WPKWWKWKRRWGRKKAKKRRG-NH2 [peptide 1]", 64],
  ["ILRWPWWPWRRK-NH2 [Omiganan, ILRWPWWPWRRK, reference compound]", 64]
]}
